# MEASUREMENT CONDITIONS: buffer; pH 7.4; 200.0 µM
Note to self: values exactly at 8 µg/mL are true. So solubility kinetic at or above 8 µg/mL is true, below is false.

Some solved entries appear below for comparison.
# COMPOUND, CLASS ASSIGNMENT
rows = [
    ("CCN(C(=O)COC(=O)c1ccccc1OCc1ccc(Cl)cc1)C1CCS(=O)(=O)C1 (stereo unspecified)", "true"),
    ("COc1ccc(Cl)cc1NC(=S)Nc1ccc(Cl)cn1", "false"),
    ("O=C(c1cc(-c2ccc(F)cc2)on1)N1CCOCC1", "true"),
    ("CCOc1ccccc1NC(=O)C(NC(=O)C1CCC(C)CC1)C(C)C (stereo unspecified)", "false"),
]

## Task Evaluate O=C(NCc1nc(-c2ccc(Cl)cc2)no1)c1ccco1 : solubility kinetic at minimum 8 µg/mL?
## Result true

## Task Evaluate Clc1cccc(-c2csc(Nc3cccnc3)n2)c1 : solubility kinetic at minimum 8 µg/mL?
## Result false

## Task Evaluate O=C(O)c1nccnc1C(=O)Nc1ccc(Cl)cn1 : solubility kinetic at minimum 8 µg/mL?
## Result true

## Task Evaluate CSc1ncc(C(=O)Nc2cccc(Cl)c2)c(C)n1 : solubility kinetic at minimum 8 µg/mL?
## Result true

## Task Evaluate Cc1ccc(C(=O)N/N=C\c2cccnc2)s1 : solubility kinetic at minimum 8 µg/mL?
## Result true

## Task Evaluate CCC(=O)Nc1cccc(NC(=O)c2ccc(C)cc2Cl)c1 : solubility kinetic at minimum 8 µg/mL?
## Result false

## Task Evaluate Cc1c(C(=O)N(C)CCn2ccnc2C)oc2c(F)cccc12 : solubility kinetic at minimum 8 µg/mL?
## Result true

## Task Evaluate CN(C)CCNC(=O)Nc1ccc(F)cc1F : solubility kinetic at minimum 8 µg/mL?
## Result true

## Task Evaluate CCC(=O)OCC(=O)Nc1cc([N+](=O)[O-])ccc1OC : solubility kinetic at minimum 8 µg/mL?
## Result true

## Task Evaluate CN1CCCN(C(=O)COc2ccccc2)CC1 : solubility kinetic at minimum 8 µg/mL?
## Result true

## Task Evaluate Cc1ccc2c(CC(=O)NCC(C)(C)N3CCOCC3)coc2c1 : solubility kinetic at minimum 8 µg/mL?
## Result true

## Task Evaluate C[C@H](NC(=O)c1ccco1)C(=O)Nc1ccc(C#N)cc1 : solubility kinetic at minimum 8 µg/mL?
## Result true

## Task Evaluate Nc1ccncc1Cl : solubility kinetic at minimum 8 µg/mL?
## Result true

## Task Evaluate CCOC(=O)c1c(-c2ccc(C)s2)csc1N : solubility kinetic at minimum 8 µg/mL?
## Result false

====

# MEASUREMENT CONDITIONS: buffer; pH 7.4; 200.0 µM
// map solubility kinetic onto a label; ranges LOW (below 4 µg/mL), MID (4 µg/mL to below 30 µg/mL), HIGH (30 µg/mL or more)

Some solved entries appear below for comparison.
# COMPOUND, CLASS ASSIGNMENT
data = [
    ("O=C(NN1CCOCC1)c1cccc(Cl)c1", "HIGH"),
    ("Brc1ccccc1Cn1cnc2ccccc21", "MID"),
    ("C#CCN1C(=O)C2(OCCO2)c2ccccc21", "HIGH"),
]

## Task Exercise: read the entry CN1C(=O)C(=Cc2coc3ccccc3c2=O)C(=O)N(C)C1=O and state which class it falls under.
## Result HIGH

## Task Exercise: read the entry COCC(C)NCc1cccc2ccccc12.O=C(O)C(=O)O (stereo not given) and state which class it falls under.
## Result HIGH

## Task Exercise: read the entry O=C(COC(=O)c1cc2ccccc2cc1O)NCc1ccccc1 and state which class it falls under.
## Result LOW

## Task Exercise: read the entry CC(C)COc1nc2ccccc2nc1N1CCN(C)CC1 and state which class it falls under.
## Result HIGH

## Task Exercise: read the entry CCCC(=O)c1c[nH]c(C(=O)N2CCOCC2)c1 and state which class it falls under.
## Result HIGH

====

# MEASUREMENT CONDITIONS: buffer; pH 7.4; 200.0 µM
Examples of compounds with documented log10(solubility kinetic) follow.
Could you please treat all values as log10 of solubility kinetic in µg/mL?

# COMPOUND, ENDPOINT LABEL, READOUT VALUE
records = [
    ("COC(=O)c1ccccc1NS(=O)(=O)c1ccc(Cl)nc1", "log10(solubility kinetic)", 1.68),
    ("O=S1(=O)N=C(Nc2ccc(O)cc2)c2ccccc21", "log10(solubility kinetic)", 1.04),
    ("O=C(COc1ccc(F)cc1)N1CCC(Cc2ccccc2)CC1", "log10(solubility kinetic)", 1.27),
    ("CSc1ncc(CN2CCc3c([nH]c4ccccc34)C2C(C)(C)C)cn1 (centres undefined)", "log10(solubility kinetic)", 1.29),
    ("CCC(C)Nc1nc2c(c(=O)[nH]c(=O)n2C)n1CCCc1ccccc1 (centres undefined)", "log10(solubility kinetic)", 1.57),
    ("COC(=O)c1ccc(S(=O)(=O)N2CCN(CCO)CC2)n1C", "log10(solubility kinetic)", 1.66),
    ("CCn1c(CNC(=O)c2ccccc2F)cc2cc(C)ccc21", "log10(solubility kinetic)", -0.10),
    ("CCN(CC(=O)Nc1ccc(OC)cc1)C(=O)c1ccc2ccccc2c1", "log10(solubility kinetic)", 1.64),
]

Consider now this further compound.
## Task Recall and state the measured log10(solubility kinetic) for CN(Cc1ccccc1)c1nc(N)nc(Cl)c1C=O .
## Result 1.42

====

# MEASUREMENT CONDITIONS: buffer; pH 7.4; 200.0 µM
ENDPOINT LABEL: solubility kinetic

Recorded results for 5 compounds are shown here.
# COMPOUND, solubility kinetic
data = [
    ("Cc1ccc(-c2ccc(OC(=O)c3ccc(=O)[nH]c3)c(C)c2)cc1", "< 0.0007 mg/mL"),
    ("COCCOC(=O)c1[nH]c2c(c1C)C(=O)CC(c1ccc(OC)cc1)C2 (stereo unspecified)", "0.0016 mg/mL"),
    ("Cc1ccc(CCSc2ccc(F)cc2)cn1.O=C(O)C(=O)O", "0.0252 mg/mL"),
    ("Cc1ccccc1/C=C\\c1nc(O)c([N+](=O)[O-])c(=O)[nH]1", "> 0.041 mg/mL"),
    ("CC(CN1CCOCC1)OC(=O)c1ccccc1Cl.Cl (stereo unspecified)", "> 0.048 mg/mL"),
]

## Task Recall and state the measured solubility kinetic for O=C(Cc1c(Cl)cccc1Cl)Nc1ccncc1 .
## Result > 0.0422 mg/mL

====

# MEASUREMENT CONDITIONS: buffer; pH 7.4; 200.0 µM
Note to self: values exactly at 5 µg/mL are t. So solubility kinetic at or above 5 µg/mL is t, below is f.

# CHEMICAL SMILES, CLASS ASSIGNMENT
rows = [
    ("Cc1cccc(N2C(=O)CN(Cc3cccs3)C2=S)c1", "f"),
    ("COCCNC(=O)c1cc2c(=O)[nH]c3ccccc3c2s1", "f"),
    ("COC(=O)CSc1nc(NCc2ccccc2)nc(N(C)C)n1", "f"),
    ("O=[N+]([O-])c1ccc2nc(NS(=O)(=O)c3ccc(F)cc3)sc2c1", "t"),
]

Query compound follows.
## Task Evaluate CCN1CCN(c2ncnc3scc(-c4ccc(C)c(C)c4)c23)CC1 : solubility kinetic at minimum 5 µg/mL?
## Result t

====

# MEASUREMENT CONDITIONS: buffer; pH 7.4; 200.0 µM
ENDPOINT LABEL: log10(solubility kinetic) (log10 of the value in µg/mL)
Could you please treat all values as log10 of solubility kinetic in µg/mL?

Recorded results for 5 compounds are shown here.
# COMPOUND, log10(solubility kinetic)
records = [
    ("Cc1ccc(CSCc2ccc(C(=O)NCC3CCCO3)o2)cc1 (centres undefined)", 1.60),
    ("Cc1cccc(OCCn2ccnc2)c1", 1.32),
    ("Cc1cnc(C(=O)OCC(=O)c2c[nH]c3ccccc23)cn1", 1.14),
    ("CC(=O)c1cccc(NC(=O)COc2ccc3oc(=O)cc(C)c3c2)c1", 0.15),
    ("Cc1ccc(C(=O)Nc2cc3[nH]c(=O)oc3cc2C)cc1", 0.68),
]

## Task Recall and state the measured log10(solubility kinetic) for Cc1sc2ncnc(Nc3ccc(O)cc3)c2c1C .
## Result 0.23

## Task Recall and state the measured log10(solubility kinetic) for Cc1cccc(Cn2c(-c3ccc[nH]c3=O)nc3ccccc32)c1 .
## Result 1.56

## Task Recall and state the measured log10(solubility kinetic) for O=C(/C=C/c1ccccc1)Nc1nc(-c2ccncc2)cs1 .
## Result -0.05

## Task Recall and state the measured log10(solubility kinetic) for O=C(NCc1ccncc1)NC12CC3CC(CC(C3)C1)C2 .
## Result 1.62

## Task Recall and state the measured log10(solubility kinetic) for COc1cc2c(cc1OC)-c1cc(Nc3ccccc3)nc(=O)n1CC2 .
## Result 0.88

## Task Recall and state the measured log10(solubility kinetic) for CN(C(=O)CSc1nc2scc(-c3ccccc3)c2c(=O)[nH]1)c1ccccc1 .
## Result 1.05

## Task Recall and state the measured log10(solubility kinetic) for COc1ccc(CNC(=S)NC(C)CCc2ccccc2)cc1 (centres undefined) .
## Result 1.17
